experiment: physchem
Recorded pKa, one value per entry.

mol-smiles | pKa
CCCN(CCC)CCc1cccc2c1CC(=O)N2 | 9.7
CNC(=O)Oc1ccc2c(c1)[C@]1(C)CCN(C)[C@@H]1N2C | 8.24

* * *

assay: Sirius T3 automated potentiometric titrations with n-octanol, log P / log D; conditions: n-octanol/water, pH 4
value-kind: logD

compound | observed
CN(C)CCCN1c2ccccc2Sc2ccccc21 [promazine] | 0.84

* * *

Recorded pKa, one value per entry.
assay: Sirius T3 automated potentiometric (pH-metric) titrations, pKa; settings: ionic strength adjusted (ISA) water ([…] KCl)
value-kind: pKa

compound | value-kind | observed
Clc1cccc(Cl)c1N=C1NCCN1 | pKa | 8.12
CC(C)NCC(O)COc1cccc2[nH]ccc12 (centres unmarked) | pKa | 9.62
